Each record here notes measured IC50.
Biological target: T. gondii CDPK1 (tgCDPK1) (Toxoplasma gondii, UniProt Q9BJF5)
Sequence (Q9BJF5 1-507): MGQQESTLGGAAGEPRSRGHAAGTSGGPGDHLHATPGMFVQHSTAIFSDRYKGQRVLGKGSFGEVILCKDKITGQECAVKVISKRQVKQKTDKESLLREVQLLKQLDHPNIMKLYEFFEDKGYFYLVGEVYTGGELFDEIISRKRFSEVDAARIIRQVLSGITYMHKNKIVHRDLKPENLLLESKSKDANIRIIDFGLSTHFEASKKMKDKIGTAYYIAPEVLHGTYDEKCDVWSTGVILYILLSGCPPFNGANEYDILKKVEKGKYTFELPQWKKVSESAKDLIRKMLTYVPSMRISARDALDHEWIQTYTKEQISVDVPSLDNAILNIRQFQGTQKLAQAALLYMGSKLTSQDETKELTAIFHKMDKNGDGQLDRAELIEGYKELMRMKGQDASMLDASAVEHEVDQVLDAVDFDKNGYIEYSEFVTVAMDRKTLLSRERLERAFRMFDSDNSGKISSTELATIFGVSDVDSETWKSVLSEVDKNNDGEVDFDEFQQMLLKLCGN
Experiment: biochemical
Conditions: inhibition of T. gondii CDPK1; at least three independent replicates; read-out: tgCDPK1 IC50
MEASUREMENT TYPE: IC50 (nM)

>>> df
                                   compound  measurement_type  result_value
0  Nc1ncnc2c1c(Cc1c[nH]c3ccc(F)cc13)nn2[C@H]1C[C@H](F)C1              IC50            11
1  Nc1ncnc2c1c(Cc1cccc(C(F)(F)F)c1)nn2[C@H]1C[C@H](O)C1              IC50            36
2     Nc1ncnc2c1c(Oc1cc(C3CC3)ccn1)nn2C1CC1              IC50          28.9
3  Nc1ncnc2c1c(Oc1cc(C(F)(F)F)ccn1)nn2C1CCCC1 [Compound 192]              IC50          19.2
4  Nc1ncnc2c1c(Oc1cc(C(F)(F)F)ccn1)nn2C1CCNCC1(F)F (centres unmarked)              IC50          19.8

###

Biological target: T. gondii CDPK1 (tgCDPK1) (Toxoplasma gondii, UniProt Q9BJF5)
Experiment: biochemical
Settings: inhibition of T. gondii CDPK1; at least three independent replicates; read-out: tgCDPK1 IC50
Label key: class 1 means IC50 under 20 nM; class 0 means IC50 of 20 nM or more.

>>> print(df.to_string())
                                    molecule  class_label
 0  CC(C)(C)n1nc(Oc2cc(O)ccn2)c2c(N)ncnc21 [Compound 264]      class 1
 1  NC(=O)c1ccnc(Oc2nn([C@H]3CC[C@@H](C(F)(F)F)CC3)c3ncnc(N)c23)c1 [Compound 208]      class 0
 2  COc1ccnc(Oc2nn([C@H]3C[C@@H](O)C3)c3ncnc(N)c23)c1 [Compound 168]      class 0
 3  COc1ccnc(Oc2nn(C3CCOC3)c3ncnc(N)c23)c1 (centres unmarked) [Compound 219]      class 0
 4  Nc1ncnc2c1c(Oc1cc(Cl)ccn1)nn2C1CCCC1 [Compound 201]      class 1
 5  Nc1ncnc2c1c(Oc1cc(C(F)(F)F)ccn1)nn2[C@H]1CC[C@H](CO)CC1 [Compound 243]      class 1
 6  COc1ccnc(Oc2nn(C3CCC3)c3ncnc(N)c23)c1 [Compound 112]      class 1
 7  COC(=O)C1CCC(n2nc(Oc3cc(C(F)(F)F)ccn3)c3c(N)ncnc32)CC1 (centres unmarked) [Compound 228]      class 0
 8  Nc1ncnc2c1c(Oc1cc(C(F)(F)F)ccn1)nn2C1CC2CNC1C2 (centres unmarked) [Compound 234]      class 0
 9  Nc1ncnc2c1c(Oc1cc(C(F)(F)F)ccn1)nn2CC1CCB(O)O1 (centres unmarked) [Compound 269]      class 0
10  Nc1ncnc2c1c(Oc1cc(C(F)(F)F)ccn1)nn2C1CCCCC1 [Compound 200]      class 1
11  Nc1ncnc2c1c(Oc1cccc(C(F)(F)F)c1)nn2[C@H]1C[C@H](F)C1 [Compound 166]      class 0
12  Nc1ncnc2c1c(Oc1cc(C(F)(F)F)ccn1)nn2[C@H]1CCCC[C@@H]1O [191 (S,S)]      class 0
13  Nc1ncnc2c1c(Oc1cc(OC(F)(F)F)ccn1)nn2C1CC1 [Compound 169]      class 0
14  Nc1ncnc2c1c(Cc1cccc(Br)c1)nn2[C@H]1C[C@@H](O)C1 [Compound 131]      class 1
15  Nc1ncnc2c1c(Oc1cc(C(F)(F)F)ccn1)nn2[C@H]1CC[C@H](O)CC1 [Compound 235]      class 1
16  NC(=O)c1ccnc(Oc2nn(C3CCCCC3)c3ncnc(N)c23)c1 [Compound 205]      class 0
17  Nc1ncnc2c1c(Oc1cc(C(F)(F)F)ccn1)nn2[C@@H]1CCCC[C@H]1O (racemic) [191 trans (rac)]      class 0
18  Nc1ncnc2c1c(Cc1cccc(F)c1)nn2[C@H]1C[C@H](F)C1 [Compound 161]      class 1
19  N#Cc1cccc(Cc2nn([C@H]3C[C@H](F)C3)c3ncnc(N)c23)c1 [Compound 172]      class 0
20  Nc1ncnc2c1c(Oc1cc(Cl)ccn1)nn2[C@H]1C[C@@H](O)C1 [Compound 163]      class 1
21  Nc1ncnc2c1c(Oc1cc(C(F)(F)F)ccn1)nn2[C@@H]1CCCC[C@H]1O [191 (R,R)]      class 1
22  Nc1ncnc2c1c(Oc1cc(C(F)(F)F)ccn1)nn2C1CCNCC1 [Compound 194]      class 0
23  Nc1ncnc2c1c(Oc1cc(C(F)(F)F)ccn1)nn2C1CCC(O)C1 (centres unmarked) [Compound 230]      class 0
24  Nc1ncnc2c1c(Oc1cc(C(F)(F)F)ccn1)nn2[C@H]1CCCC[C@H]1F [Compound 233]      class 0

###

Target: T. gondii CDPK1 (tgCDPK1) (Toxoplasma gondii)
Assay: biochemical
Conditions: inhibition of T. gondii CDPK1; at least three independent replicates; read-out: tgCDPK1 IC50
Experimental: Certain of the compounds prepared as described above were assayed to determine their IC50 for inhibition of T. gondii CDPK1 (tgCDPK1). At least three independent replicates of the assay were conducted for each compound tested.
molecules and their reported IC50
MEASUREMENT TYPE: IC50 (nM)

In [3]: df
Out[3]:
                                    molecule  measurement_type  result_value
 0  Nc1ncnc2c1c(Oc1cc(C(F)(F)F)ccn1)nn2CC1CCNCC1(F)F (centres unmarked) [Compound 197]              IC50          13.8
 1  CC(C)(C)OC(=O)N[C@H]1CC[C@@H](n2nc(Oc3cc(C(F)(F)F)ccn3)c3c(N)ncnc32)C1 [Compound 240]              IC50          12.1
 2  N#Cc1cccc(Oc2nn([C@H]3C[C@H](F)C3)c3ncnc(N)c23)c1 [Compound 173]              IC50          49.8
 3  CC(C)(C)n1nc(Oc2cc(C(F)(F)F)ccn2)c2c(N)ncnc21 [Compound 258]              IC50          13.9
 4  Nc1ncnc2c1c(Oc1cc(C(F)(F)F)ccn1)nn2C1CC1 [Compound 159]              IC50            13
 5  Nc1ncnc2c1c(Oc1cc(C(F)(F)F)ccn1)nn2C1CC(F)(F)CCC1O (centres unmarked) [Compound 274]              IC50            35
 6  Nc1ncnc2c1c(Oc1cc(O)ccn1)nn2[C@@H]1CCCC[C@@H]1O (single isomer, unassigned) [Compound 284]              IC50          39.2
 7  Nc1ncnc2c1c(Oc1cc(C(F)(F)F)ccn1)nn2C1(C(=O)O)CCC1 [Compound 288]              IC50         11900
 8  Nc1ncnc2c1c(Cc1cccc(Cl)c1)nn2[C@H]1C[C@@H](O)C1 [Compound 130]              IC50          15.1
 9  COc1ccnc(Oc2nn([C@H]3CCCC[C@H]3O)c3ncnc(N)c23)c1 (single isomer, unassigned) [Compound 286]              IC50           144
10  Nc1ncnc2c1c(Oc1cc(C(F)(F)F)ccn1)nn2[C@H]1CC[C@@H](CO)CC1 [Compound 242]              IC50          15.1
11  N#Cc1ccnc(Oc2nn(CC3CC3)c3ncnc(N)c23)c1 [Compound 221]              IC50          24.1
12  Nc1ncnc2c1c(Oc1cc(Cl)ccn1)nn2C1CCCOC1 (centres unmarked) [Compound 216]              IC50          15.8
13  CC(C)(C)n1nc(Oc2cc(Cl)ccn2)c2c(N)ncnc21 [Compound 262]              IC50            12
14  NC(=O)c1ccnc(Oc2nn(C3CCC(F)(F)CC3)c3ncnc(N)c23)c1 [Compound 206]              IC50          96.8
15  Nc1ncnc2c1c(Oc1cc(C(F)(F)F)ccn1)nn2C1CCC(N)CC1 (centres unmarked) [Compound 232]              IC50          24.3
16  Nc1ncnc2c1c(Oc1cc(C(F)(F)F)ccn1)nn2[C@H]1C[C@@H](O)C1 [Compound 170]              IC50          38.6
